// pIC50 lookup, one value per entry
Target: HDAC
Assay: Assay of enzyme inhibition of HDAC (BIOMOL kit, fluorescence)
Details: nuclear fraction of Hela cells; substrate 200 µM; 15 min at RT
pIC50: −log10 of the molar value.

# MOLECULE, pIC50
measured = [
    ("CC(=O)N1CC2(CC(=O)c3cc(/C=C/C(=O)NO)ccc3O2)C1", "6.00 to 7.00"),
    ("CN1CCC2(CC(=O)c3cc(/C=C/C(=O)NO)ccc3O2)C1 (racemic)", "6.00 to 7.00"),
    ("O=C(/C=C/c1ccc2c(c1)C(=NOCc1ccccc1)CC1(CCCN(CCc3ccccc3)C1)O2)NO (centres unmarked)", "≤ 6.00"),
    ("O=C(/C=C/c1ccc2c(c1)C(=O)CC1(CCN(C(=O)c3ccccc3)C1)O2)NO (racemic)", "6.00 to 7.00"),
]

Kindly review the next molecule as well.
[in] Answer with the recorded pIC50 for the molecule listed here: O=C(/C=C/c1ccc2c(c1)C(=O)CC1(CCCN(C(=O)c3ccccc3)CC1)O2)NO (racemic)
[out] 6.00 to 7.00

----------
// pIC50 lookup, one value per entry
Biological target: HDAC
Assay: Assay of enzyme inhibition of HDAC (BIOMOL kit, fluorescence)
Conditions: nuclear fraction of Hela cells; substrate 200 µM; 15 min at RT
pIC50: −log10 of the molar value.

Answered cases to consult:
# COMPOUND, pIC50
rows = [
    ("O=C(/C=C/c1ccc2c(c1)C(=O)NC1(CCCN(CCc3ccccc3)C1)O2)NO (racemic) [Example 43]", "≥ 7.00"),
    ("O=C(/C=C/c1ccc2c(c1)C(=O)NC1(CCCN(Cc3ccc(F)cc3)C1)O2)NO (racemic) [Example 42]", "6.00 to 7.00"),
]

Kindly review the next compound as well.
[in] Answer with the recorded pIC50 for the compound listed here: O=C(/C=C/c1ccc2c(c1)C(=O)CC1(CCCN(CCc3ccccc3)CC1)O2)NO (racemic) [Example 28]
[out] ≥ 7.00

All figures here come from patent EP2488529B1.
